Please go through the items and note down their AC50.
tested on: human bronchial epithelial cells, CFTR corrector, plate reader; test: rescue of ΔF508 CFTR function, airway epithelium – human bronchial epithelial cells, plate reader, cherry-pick, two tests, dose response (AID 743267); conditions: measured here: test 1 replicate run

What reported AC50 corresponds to COc1ccc(S(=O)(=O)Nc2ccc3c(c2)C(=O)N([C@H](C)CO)C[C@@H](C)[C@@H](CN(C)Cc2ccc(C(F)(F)F)cc2)O3)cc1 on human bronchial epithelial cells, CFTR corrector, plate reader?
> 50 µM

Any idea what AC50 came out for N#C[C@@H]1[C@H](c2ccc(-c3cccc(F)c3)cc2)[C@H](CO)N1C(=O)NC1CCCC1 on human bronchial epithelial cells, CFTR corrector, plate reader?
> 50 µM

Field: AC50 (human bronchial epithelial cells, CFTR corrector, plate reader). Entry: COc1ccc(CNC(=O)c2cc3c(c(-c4cccc(-c5ccc(C#N)cc5)c4)n2)[C@@H](CCO)N([S@](=O)C(C)(C)C)C3)cc1
> 50 µM

* * *

test system: human bronchial epithelial cells, CFTR corrector, plate reader; assay: rescue of ΔF508 CFTR function, airway epithelium – human bronchial epithelial cells, plate reader, cherry-pick, two tests, dose response (AID 743267); conditions: measured here: test 2 replicate run
quantity kind: AC50 (µM)
Output spec: scalar in µM, unitless text.

# query: AC50 | item Cc1ccc(S(=O)(=O)N[C@H](C(=O)OCC(=O)NC(=O)C2CCCCC2)C(C)C)cc1 | system: human bronchial epithelial cells, CFTR corrector, plate reader
38.6

GET /values?readout=AC50&system=human bronchial epithelial cells, CFTR corrector, plate reader&item= COc1ccc2c(c1)sc(N)[n+]2Cc1cc(C)cc2cccnc12
1.04

Notebook entry, human bronchial epithelial cells, CFTR corrector, plate reader assay: AC50 of Oc1cccc(/C=N/Nc2ccc(Cl)nn2)c1O = ?
16

* * *

Field: AC50. Provide a value for each of the compounds that follow.
tested on: human bronchial epithelial cells, CFTR corrector, plate reader; assay: rescue of ΔF508 CFTR function, airway epithelium – human bronchial epithelial cells, plate reader, cherry-pick, two tests, dose response (AID 743267); conditions: measured here: test 2 replicate run
Respond numerically; units are µM and should not be typed.

State the recorded AC50 for this entry: O=C1C=C(NCCc2cc(Br)c(O)c(Br)c2)C(=O)c2ncccc21
3.33

Given the entry COc1ccc(Cl)cc1NC(=O)CN(C)CC(=O)Nc1cc(OC)c(OC)c(OC)c1 , report its measured AC50.
8.47

Form field: reported AC50 of COCCCNc1nnc(Cc2ccc(Cl)cc2)c(=O)[nH]1
3.78

What does the data say about its AC50? Entry: CCCC(=O)NC1=C(Cl)C(=O)c2ccccc2C1=O
11.8

What value of measured AC50 is listed for CCOC(=O)c1sc(Nc2nc(C)cc(C)n2)nc1C ?
11.5

Recorded AC50 of O=C(CN1C(=O)NC2(CCCCCCC2)C1=O)Nc1ccc(Br)cc1 , please.
1.13

Name the reported AC50 value associated with the compound Cc1ccc(S(=O)(=O)N(Cc2cc3ccccc3[nH]c2=O)c2cccc(C)c2)cc1
8.17

Consider the compound CCN(CC)CCC(=O)Nc1cccc2c1C(=O)c1ccccc1C2=O and give its measured AC50.
2.98

Requested field: AC50. Item: CCN1/C(=C\c2ccc3cc(C)ccc3[n+]2CC)Sc2cc(C)c(C)cc21
9.9

Can you share its AC50? I mean this compound: CCN(CC)c1ccc(/C=C(/C#N)c2nc3ccc(C)cc3[nH]2)c(OC(C)C)c1
9.34

Look at this compound and give its reported AC50. COc1ccc2noc3c2c1C(=O)c1ccccc1-3
19.1

Endpoint output: AC50 of COc1cccc(C2c3cc4c(cc3OC(NNC(N)=O)C2C)OCO4)c1O (stereo not drawn) . Value?
3.18

What does the data say about its AC50? Entry: Cn1cccc1/C=C1\SC(=Nc2cccc(O)c2)NC1=O
13.5

I have this compound here, CC(=O)Nc1ccc2cc3ccc(NC(C)=O)cc3nc2c1 , and I need its recorded AC50.
18.1

Name the reported AC50 value associated with the compound CCOc1ccccc1N1CCN(C(=O)c2cc3ccccc3cc2OC)CC1
3.45

# get_value(readout='AC50', item= COc1ccc(Nc2nc3cc(-c4sccc4C)sc3c(=O)n2C)cc1OC )
2.15

Any idea what its AC50 is? The compound is Cc1ccc(N2C(=O)c3cccc4c([N+](=O)[O-])ccc(c34)C2=O)c2cccnc12
18.8

Suppose we examine the compound N#CC1=C(N)OC2=C(CCc3ccccc32)C1c1ccccc1Cl (stereo not drawn) ; what AC50 value has been reported?
2.61

# AC50 lookup, item O=C1c2ccccc2C(=O)N1Cc1cnc(N2CCN(c3ccccc3)CC2)s1
44.1
